Data credit: patent US9107919B2

ASSAY_SUMMARY: Pharmacokinetics of intravesical imiquimod in pigs (plasma, urine)
Format: in vivo, pig
CONDITIONS: female, Dutch Landrace, pig, urine, other: intravesical instillation, 50 mL of imiquimod 0.5% solution; after 24 hours, all imiquimod groups; read-out: imiquimod levels in urine
MEASURED_ATTRIBUTE: concentration at 24 h

The molecule identified as CC(C)Cn1cnc2c(N)nc3ccccc3c21 registered its concentration at 24 h at < 5000 ng/mL

====

ASSAY_SUMMARY: Pharmacokinetics of intravesical imiquimod in pigs (plasma, urine)
Assay type: in vivo, pig
CONDITIONS: female, Dutch Landrace, plasma, other: intravesical instillation, 50 mL of imiquimod 0.5% solution; after eight hours, any pig
MEASURED_ATTRIBUTE: concentration at 8 h

The compound identified as CC(C)Cn1cnc2c(N)nc3ccccc3c21 [imiquimod] registered its concentration at 8 h at < 2.1 ng/mL

====

ASSAY_SUMMARY: Preliminary solubility tests of imiquimod (visual inspection)
Format: physicochemical
CONDITIONS: glacial (100%) acetic acid, organic solvent or mixture, thermodynamic from solid; room temperature
MEASURED_ATTRIBUTE: solubility (mg/mL)
Hi! Could you send only the number? It should be in mg/mL, unit omitted.

The molecule identified as CC(C)Cn1cnc2c(N)nc3ccccc3c21 registered its solubility at 100
